B1: DCAF4 (parent)
chain: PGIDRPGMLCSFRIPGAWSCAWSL

Variants of: B1
Assay: protein stability index of a GFP-peptide fusion (GPS, HEK-293T) (PSI 1-6); higher = more stable;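 note: lentivirally expressed fusions sorted by FACS into six bins by GFP to DsRed ratio, PSI derived from sequencing read proportions per bin multiplied by bin number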
Conditions: c terminus: a fixed tail appended

# chainSequence, protein stability index
data = [
    ("PGIDRPGYLCSFRIPGAWSCAWSL", 1.56),
    ("PGIDRPKMLCSFRIPGAWSCAWSL", 2.7),
    ("PGIDRPGMLCSFRIPGAWSFAWSL", 4.57),
    ("PGKDRPGMLCSFRIPGAWSCAWSL", 2.3),
    ("PGIDRPGMLCSFRIPGAWSCAQSL", 3.24),
    ("PGIDRPGMLCSFRIPGAWACAWSL", 3.16),
    ("PGIDRQGMLCSFRIPGAWSCAWSL", 3.62),
    ("PGIERPGMLCSFRIPGAWSCAWSL", 2.38),
    ("PGIDRPGMLCSFRIPGAWSCAWYL", 3.52),
    ("PGIDRPGMVCSFRIPGAWSCAWSL", 2.85),
    ("PGIDRPGMLCSFRIPQAWSCAWSL", 2.3),
    ("PGIDRPGMLCSFLIPGAWSCAWSL", 3.69),
    ("PGIDFPGMLCSFRIPGAWSCAWSL", 3.57),
    ("PGIDRPGMLCSFRIPGAWSCAWFL", 2),
    ("PGIDRPGMLCSIRIPGAWSCAWSL", 2.26),
    ("PGIDRPFMLCSFRIPGAWSCAWSL", 4.52),
    ("PGIDRPGMLCSFRIPGAWSCKWSL", 3.64),
    ("PGIDRPGMLCSFRAPGAWSCAWSL", 1.77),
    ("PGIDRTGMLCSFRIPGAWSCAWSL", 2.65),
    ("PGIDRPGMLCVFRIPGAWSCAWSL", 1.85),
    ("PGIDRPGMLCEFRIPGAWSCAWSL", 2.68),
    ("PGVDRPGMLCSFRIPGAWSCAWSL", 2.56),
]
